tested on: A. baumannii 9234; type: cell-based, Acinetobacter baumannii; conditions: 9234, 18 h
Square brackets hold non-standard residues; d marks the D form. Peptide text beside a SMILES is read from it. ξ: configuration not given here. ξαMeGly(pent-4-enyl) = C=CCCCC(C)(N)C(=O)O
QUANTITY: MIC, A. baumannii 9234 (µg/mL)
Write down the numeric answer in µg/mL and omit the unit.

>  <MOLECULE>
C=CCCCC(C)(NC(=O)[C@H](CC(C)C)NC(=O)[C@H](CCCCN)NC(=O)[C@H](CC(C)C)NC(=O)[C@@H](N)Cc1ccccc1)C(=O)N[C@@H](CCCCN)C(=O)N[C@@H](CCCCN)C(=O)N[C@@H](CC(C)C)C(=O)N[C@@H](CC(C)C)C(N)=O (stereo partly drawn) [Feleucin-K68] (H-FLKL[ξαMeGly(pent-4-enyl)]KKLL-NH2)

>  <ENDPOINT UNIT>
µg/mL

>  <MIC, A. baumannii 9234>
4

$$$$

Quick one: MIC, A. baumannii 9234 of C=CCCCC(C)(NC(=O)[C@H](CC(C)C)NC(=O)[C@H](CC(C)C)NC(=O)[C@H](CCCCN)NC(=O)[C@H](CC(C)C)NC(=O)[C@@H](N)Cc1ccccc1)C(=O)N[C@@H](CCCCN)C(=O)N[C@@H](CC(C)C)C(=O)N[C@@H](CC(C)C)C(N)=O (stereo partly drawn) [Feleucin-K71] (H-FLKLL[ξαMeGly(pent-4-enyl)]KLL-NH2) ? 8

Quick one: MIC, A. baumannii 9234 of C=CCCCC(C)(NC(=O)[C@@H](N)Cc1ccccc1)C(=O)N[C@@H](CCCCN)C(=O)N[C@@H](CC(C)C)C(=O)N[C@@H](CC(C)C)C(=O)N[C@@H](CCCCN)C(=O)N[C@@H](CCCCN)C(=O)N[C@@H](CC(C)C)C(=O)N[C@@H](CC(C)C)C(N)=O (stereo partly drawn) [Feleucin-K67] (H-F[ξαMeGly(pent-4-enyl)]KLLKKLL-NH2) ? 4
